- Tested on: Salmonella choleraesuis
- run-description: Bacterial panel testing, MIC by broth microdilution
- Format: cell-based
- conditions: 20-24 hours growth
parameter: MIC SC

{"columns": ["compound", "assay-value"],
 "data": [
  ["O=C(Cn1ccnc1)NCC1OC2OC3C(CNC(=O)Cn4ccnc4)OC(OC4C(CNC(=O)Cn5ccnc5)OC(OC5C(CNC(=O)Cn6ccnc6)OC(OC6C(CNC(=O)Cn7ccnc7)OC(OC7C(CNC(=O)Cn8ccnc8)OC(OC8C(CNC(=O)Cn9ccnc9)OC(OC1C(O)C2O)C(O)C8O)C(O)C7O)C(O)C6O)C(O)C5O)C(O)C4O)C(O)C3O (stereo not drawn)", ">200 µg/mL"],
  ["Cl.Cl.Cl.Cl.Cl.Cl.Cl.Cl.Cl.Cl.Cl.Cl.Cl.Cl.Cl.Cl.Cl.Cl.Cl.Cl.Cl.NCCCCC(N)C(=O)NC(CCCCN)C(=O)NCC1OC2OC3C(CNC(=O)C(CCCCN)NC(=O)C(N)CCCCN)OC(OC4C(CNC(=O)C(CCCCN)NC(=O)C(N)CCCCN)OC(OC5C(CNC(=O)C(CCCCN)NC(=O)C(N)CCCCN)OC(OC6C(CNC(=O)C(CCCCN)NC(=O)C(N)CCCCN)OC(OC7C(CNC(=O)C(CCCCN)NC(=O)C(N)CCCCN)OC(OC8C(CNC(=O)C(CCCCN)NC(=O)C(N)CCCCN)OC(OC1C(O)C2O)C(O)C8O)C(O)C7O)C(O)C6O)C(O)C5O)C(O)C4O)C(O)C3O (stereo not drawn)", ">200 µg/mL"],
  ["OC1C2OC(CNC3CCCCC3)C(OC3OC(CNC4CCCCC4)C(OC4OC(CNC5CCCCC5)C(OC5OC(CNC6CCCCC6)C(OC6OC(CNC7CCCCC7)C(OC7OC(CNC8CCCCC8)C(OC8OC(CNC9CCCCC9)C(O2)C(O)C8O)C(O)C7O)C(O)C6O)C(O)C5O)C(O)C4O)C(O)C3O)C1O (stereo not drawn)", ">200 µg/mL"]
]}

---

- Tested on: Lungs cancer cells A549
- run-description: Mammalian cytotoxicity

{"columns": ["compound", "Mammalian Cytotoxicity IC50"],
 "data": [
  ["OC1C2OC(CNC3CCNCC3)C(OC3OC(CNC4CCNCC4)C(OC4OC(CNC5CCNCC5)C(OC5OC(CNC6CCNCC6)C(OC6OC(CNC7CCNCC7)C(OC7OC(CNC8CCNCC8)C(OC8OC(CNC9CCNCC9)C(O2)C(O)C8O)C(O)C7O)C(O)C6O)C(O)C5O)C(O)C4O)C(O)C3O)C1O (stereo not shown)", "378 µg/mL"],
  ["OC1C2OC(CNC3CCCCC3)C(OC3OC(CNC4CCCCC4)C(OC4OC(CNC5CCCCC5)C(OC5OC(CNC6CCCCC6)C(OC6OC(CNC7CCCCC7)C(OC7OC(CNC8CCCCC8)C(OC8OC(CNC9CCCCC9)C(O2)C(O)C8O)C(O)C7O)C(O)C6O)C(O)C5O)C(O)C4O)C(O)C3O)C1O (stereo not shown)", "373 µg/mL"],
  ["[N-]=[N+]=NC[C@H]1O[C@@H]2O[C@H]3[C@H](O)[C@@H](O)[C@@H](O[C@H]4[C@H](O)[C@@H](O)[C@@H](O[C@H]5[C@H](O)[C@@H](O)[C@@H](O[C@H]6[C@H](O)[C@@H](O)[C@@H](O[C@H]7[C@H](O)[C@@H](O)[C@@H](O[C@H]8[C@H](O)[C@@H](O)[C@@H](O[C@H]1[C@H](O)[C@H]2O)O[C@@H]8CN=[N+]=[N-])O[C@@H]7CN=[N+]=[N-])O[C@@H]6CN=[N+]=[N-])O[C@@H]5CN=[N+]=[N-])O[C@@H]4CN=[N+]=[N-])O[C@@H]3CN=[N+]=[N-]", "2116 µg/mL"],
  ["OC1C2OC(CNc3nc4ccccc4s3)C(OC3OC(CNc4nc5ccccc5s4)C(OC4OC(CNc5nc6ccccc6s5)C(OC5OC(CNc6nc7ccccc7s6)C(OC6OC(CNc7nc8ccccc8s7)C(OC7OC(CNc8nc9ccccc9s8)C(OC8OC(CNc9nc%10ccccc%10s9)C(O2)C(O)C8O)C(O)C7O)C(O)C6O)C(O)C5O)C(O)C4O)C(O)C3O)C1O (stereo not shown)", "317 µg/mL"],
  ["COc1ccc(CNCC2OC3OC4C(CNCc5ccc(OC)cc5)OC(OC5C(CNCc6ccc(OC)cc6)OC(OC6C(CNCc7ccc(OC)cc7)OC(OC7C(CNCc8ccc(OC)cc8)OC(OC8C(CNCc9ccc(OC)cc9)OC(OC9C(CNCc%10ccc(OC)cc%10)OC(OC2C(O)C3O)C(O)C9O)C(O)C8O)C(O)C7O)C(O)C6O)C(O)C5O)C(O)C4O)cc1 (stereo not shown)", "297 µg/mL"],
  ["O[C@@H]1[C@@H](O)[C@H]2O[C@H]3[C@H](O)[C@@H](O)[C@@H](O[C@H]4[C@H](O)[C@@H](O)[C@@H](O[C@H]5[C@H](O)[C@@H](O)[C@@H](O[C@H]6[C@H](O)[C@@H](O)[C@@H](O[C@H]7[C@H](O)[C@@H](O)[C@@H](O[C@H]8[C@H](O)[C@@H](O)[C@@H](O[C@@H]1[C@@H](CNCc1ccccc1)O2)O[C@@H]8CNCc1ccccc1)O[C@@H]7CNCc1ccccc1)O[C@@H]6CNCc1ccccc1)O[C@@H]5CNCc1ccccc1)O[C@@H]4CNCc1ccccc1)O[C@@H]3CNCc1ccccc1", "840 µg/mL"],
  ["O[C@@H]1[C@@H](O)[C@H]2O[C@H]3[C@H](O)[C@@H](O)[C@@H](O[C@H]4[C@H](O)[C@@H](O)[C@@H](O[C@H]5[C@H](O)[C@@H](O)[C@@H](O[C@H]6[C@H](O)[C@@H](O)[C@@H](O[C@H]7[C@H](O)[C@@H](O)[C@@H](O[C@H]8[C@H](O)[C@@H](O)[C@@H](O[C@@H]1[C@@H](CNCCc1ccccc1)O2)O[C@@H]8CNCCc1ccccc1)O[C@@H]7CNCCc1ccccc1)O[C@@H]6CNCCc1ccccc1)O[C@@H]5CNCCc1ccccc1)O[C@@H]4CNCCc1ccccc1)O[C@@H]3CNCCc1ccccc1", "43 µg/mL"]
]}

---

- Test system: Salmonella choleraesuis
- run-description: Bacterial panel testing, MIC by broth microdilution
- Format: cell-based
- conditions: 20-24 hours growth
- Description: One to three colonies of bacteria were picked from an Mueller-Hinton or Brain Heart infusion agar plate (depending on the bacterial strain) and transferred to 3 ml Mueller-Hinton broth or Brain Heart infusion media (depending on the bacterial strain). Bacteria were allowed to grow for 2-4 hours in an incubator at 37° C. […] All wells were then filled with 100 μl of inoculated media (dilution 1 from Example 1). […] Cytotoxic wells (clear wells) are then scored and the potency of the compound was determined.

{"columns": ["molecule", "target-system", "MIC SC"],
 "data": [
  ["OC1C2OC(CNC3CCNCC3)C(OC3OC(CNC4CCNCC4)C(OC4OC(CNC5CCNCC5)C(OC5OC(CNC6CCNCC6)C(OC6OC(CNC7CCNCC7)C(OC7OC(CNC8CCNCC8)C(OC8OC(CNC9CCNCC9)C(O2)C(O)C8O)C(O)C7O)C(O)C6O)C(O)C5O)C(O)C4O)C(O)C3O)C1O (stereo not drawn)", "Salmonella choleraesuis", ">200 mg/L"],
  ["Cc1cc(NCC2OC3OC4C(CNc5ccc(C(C)C)c(C)c5)OC(OC5C(CNc6ccc(C(C)C)c(C)c6)OC(OC6C(CNc7ccc(C(C)C)c(C)c7)OC(OC7C(CNc8ccc(C(C)C)c(C)c8)OC(OC8C(CNc9ccc(C(C)C)c(C)c9)OC(OC9C(CNc%10ccc(C(C)C)c(C)c%10)OC(OC2C(O)C3O)C(O)C9O)C(O)C8O)C(O)C7O)C(O)C6O)C(O)C5O)C(O)C4O)ccc1C(C)C (stereo not drawn)", "Salmonella choleraesuis", ">200 mg/L"],
  ["Cl.Cl.Cl.Cl.Cl.Cl.Cl.N=C(N)NCCCCCCSCC1OC2OC3C(CSCCCCCCNC(=N)N)OC(OC4C(CSCCCCCCNC(=N)N)OC(OC5C(CSCCCCCCNC(=N)N)OC(OC6C(CSCCCCCCNC(=N)N)OC(OC7C(CSCCCCCCNC(=N)N)OC(OC8C(CSCCCCCCNC(=N)N)OC(OC1C(O)C2O)C(O)C8O)C(O)C7O)C(O)C6O)C(O)C5O)C(O)C4O)C(O)C3O (stereo not drawn)", "Salmonella choleraesuis", ">200 mg/L"]
]}

---

- System: Lungs cancer cells A549
- run-description: Mammalian cytotoxicity
parameter: Mammalian Cytotoxicity IC50 (µg/mL)

{"columns": ["compound", "assay-value"],
 "data": [
  ["NCCCCCC(=O)NC[C@H]1O[C@@H]2O[C@H]3[C@H](O)[C@@H](O)[C@@H](O[C@H]4[C@H](O)[C@@H](O)[C@@H](O[C@H]5[C@H](O)[C@@H](O)[C@@H](O[C@H]6[C@H](O)[C@@H](O)[C@@H](O[C@H]7[C@H](O)[C@@H](O)[C@@H](O[C@H]8[C@H](O)[C@@H](O)[C@@H](O[C@H]1[C@H](O)[C@H]2O)O[C@@H]8CNC(=O)CCCCCN)O[C@@H]7CNC(=O)CCCCCN)O[C@@H]6CNC(=O)CCCCCN)O[C@@H]5CNC(=O)CCCCCN)O[C@@H]4CNC(=O)CCCCCN)O[C@@H]3CNC(=O)CCCCCN", 780],
  ["NCCCCC(=O)NC[C@H]1O[C@@H]2O[C@H]3[C@H](O)[C@@H](O)[C@@H](O[C@H]4[C@H](O)[C@@H](O)[C@@H](O[C@H]5[C@H](O)[C@@H](O)[C@@H](O[C@H]6[C@H](O)[C@@H](O)[C@@H](O[C@H]7[C@H](O)[C@@H](O)[C@@H](O[C@H]8[C@H](O)[C@@H](O)[C@@H](O[C@H]1[C@H](O)[C@H]2O)O[C@@H]8CNC(=O)CCCCN)O[C@@H]7CNC(=O)CCCCN)O[C@@H]6CNC(=O)CCCCN)O[C@@H]5CNC(=O)CCCCN)O[C@@H]4CNC(=O)CCCCN)O[C@@H]3CNC(=O)CCCCN", 755],
  ["CCCCCCNC[C@H]1O[C@@H]2O[C@H]3[C@H](O)[C@@H](O)[C@@H](O[C@H]4[C@H](O)[C@@H](O)[C@@H](O[C@H]5[C@H](O)[C@@H](O)[C@@H](O[C@H]6[C@H](O)[C@@H](O)[C@@H](O[C@H]7[C@H](O)[C@@H](O)[C@@H](O[C@H]8[C@H](O)[C@@H](O)[C@@H](O[C@H]1[C@H](O)[C@H]2O)O[C@@H]8CNCCCCCC)O[C@@H]7CNCCCCCC)O[C@@H]6CNCCCCCC)O[C@@H]5CNCCCCCC)O[C@@H]4CNCCCCCC)O[C@@H]3CNCCCCCC", 129],
  ["C[C@@H](NCC1OC2OC3C(CN[C@H](C)c4ccccc4)OC(OC4C(CN[C@H](C)c5ccccc5)OC(OC5C(CN[C@H](C)c6ccccc6)OC(OC6C(CN[C@H](C)c7ccccc7)OC(OC7C(CN[C@H](C)c8ccccc8)OC(OC8C(CN[C@H](C)c9ccccc9)OC(OC1C(O)C2O)C(O)C8O)C(O)C7O)C(O)C6O)C(O)C5O)C(O)C4O)C(O)C3O)c1ccccc1 (some centres unmarked)", 105],
  ["Cl.Cl.Cl.Cl.Cl.Cl.Cl.NCc1ccc(CSCC2OC3OC4C(CSCc5ccc(CN)cc5)OC(OC5C(CSCc6ccc(CN)cc6)OC(OC6C(CSCc7ccc(CN)cc7)OC(OC7C(CSCc8ccc(CN)cc8)OC(OC8C(CSCc9ccc(CN)cc9)OC(OC9C(CSCc%10ccc(CN)cc%10)OC(OC2C(O)C3O)C(O)C9O)C(O)C8O)C(O)C7O)C(O)C6O)C(O)C5O)C(O)C4O)cc1 (centres unmarked)", 56.2]
]}
